assay.explanation: growth inhibition of MALME3 cells – cell-based, CellTiter-Glo, cherry-picked, orthogonal assay for MITF inhibitor project, dose response (AID 493191)
details: MALME3 melanoma viability, CellTiter-Glo luminescence, 24 h; series mostly up to 35 µM
Among all 1,300 compounds or so, about 330 (25%) were called active. A selection follows. Potency and affinity values are given separately.
value.type: outcome

Solved entries (count: 8):
>>> df
                                  structure  reported
0                CCSc1nnc(NC(=O)C2CCCCC2)s1  inactive
1               COc1cnc(-c2ccccn2)nc1NC(C)C  inactive
2              Cc1ccc2nc(-c3ccncc3)[nH]c2c1  inactive
3  COc1cc(OC)cc(C(=O)N[C@H](C(=O)Nc2nc3ccccc3[nH]2)C(C)C)c1  inactive
4      CCCOc1ccc(C(=O)Nc2ccc3c(c2)OCCO3)cc1  inactive
5  Cc1ccc(C#CC[N+]2(CC#Cc3ccc(C)cc3)CCCCC2)cc1  inactive
6               O=C(Nc1ccc(Cl)cc1)N1CC=CCC1  inactive
7  CCOCCCNC(=O)/C(C#N)=C/c1ccc(Cl)c([N+](=O)[O-])c1  inactive

// query Annotate the compound NCCCNc1nc(N)c([N+](=O)[O-])c(NC2CCCCC2)n1 with its measured outcome.
// result inactive

// query Answer with the recorded outcome for the compound listed here: Cc1ccc(C)c(-n2c3nc(=O)[nH]c(=O)c-3cc3cc([N+](=O)[O-])ccc32)c1
// result inactive

// query Write down outcome measured for item O=C(N/N=C/c1ccccc1Cl)c1n[nH]c2c1CCCC2
// result inactive

---

assay.explanation: growth inhibition of MALME3 cells – cell-based, CellTiter-Glo, cherry-picked, orthogonal assay for MITF inhibitor project, dose response (AID 493191)
details: MALME3 melanoma viability, CellTiter-Glo luminescence, 24 h; series mostly up to 35 µM
About 330 (25%) of roughly 1,300 compounds were called active. These entries were drawn from the full list. Entries with a potency or affinity are not part of this list.
value.type: outcome

Reference set (8 entries):
In [3]: df
Out[3]:
                                   molecule  reported
0   Cc1c(C#N)c(NC(=O)CCl)n(Cc2ccc(F)cc2)c1C  inactive
1        COc1cccc(NC(=O)c2cc3ccccc3cc2OC)c1  inactive
2  C/C(=N\NC(=O)C(C)Oc1ccc([N+](=O)[O-])cc1)c1ccccn1 (configuration not stated)  inactive
3  CC(C)c1ccc(/C=C2\SC(=S)N(CCC(=O)N3CCCCC3CCO)C2=O)cc1 (configuration not stated)  inactive
4      O=C(Nc1ccc([N+](=O)[O-])cc1)c1ccccc1  inactive
5   Cc1cc(C)c(C#N)c(SCc2nnc(-c3ccccc3)o2)n1  inactive
6    CN(C)c1ccc(/C=N/N2CCN(c3ccccn3)CC2)cc1  inactive
7          O=C(N/N=C/c1cc(Cl)ccc1O)c1ccncc1  inactive

--- query ---
// query Supply outcome value. Item: Cc1ccc(C2CC(C(F)(F)F)n3nc(C(=O)NCc4c(C)nn(C)c4C)c(Cl)c3N2)cc1 (configuration not stated)
// result inactive
